Where do the numbers come from? From a melting point compilation (Tetko et al.; mined from patent text by program, amines drawn as free bases though some values may be those of a salt).

{"Compound": "CCNC(=O)/C=C/c1cccc(Cl)c1", "melting point": "87 to 88 °C"}
{"Compound": "O=[N+]([O-])c1cnc(Cl)nc1NCCO", "melting point": "123 to 125 °C"}
{"Compound": "COC(=O)c1ccccc1NC(=O)N(C)C", "melting point": "85 to 90 °C"}
{"Compound": "CC(=O)NC[C@H]1CN(c2ccc(-n3nccc3-c3ccc(Br)cc3)c(F)c2)C(=O)O1", "melting point": "96.8 to 98.8 °C"}
{"Compound": "OC(c1ccc(F)cc1)(c1ccc(F)cc1)C1CCN(CCCOc2ccc(Cl)cc2)CC1", "melting point": "92 to 93 °C"}
{"Compound": "CCCc1c(OCCCOc2ccc3c(c2CCC)OC(C)(CCC(=O)N(C)CC(=O)OCC)CC3=O)ccc(C(C)=O)c1O (stereo unspecified)", "melting point": "101 to 102 °C"}
{"Compound": "CCCCCCCCCCCc1cccc(Oc2c(N)nc(N)nc2CC)c1", "melting point": "97 to 99 °C"}
{"Compound": "O=[PH](O)Cc1ccc(P(c2ccccc2)c2ccccc2)cc1", "melting point": "40 °C"}
{"Compound": "C[C@@H](Oc1ccc(-c2ccccc2)cc1)[C@H](O)CCc1cccnc1", "melting point": "98 to 99.5 °C"}
{"Compound": "CN1CC(c2ccc(Nc3cc(-c4cccc(N5Cc6cc(C(C)(C)C)ccc6C5=O)c4CO)cn(C)c3=O)nc2)C1", "melting point": "201 to 202 °C"}
{"Compound": "CC(C)c1ccc(S(=O)(=O)c2ccccc2)cc1S(=O)(=O)NC1CCN(C(=O)c2ccc(F)cc2)CC1", "melting point": "218 to 220 °C"}
{"Compound": "C=C(C)CNC(=NC#N)Nc1cccnc1", "melting point": "140 to 141 °C"}
{"Compound": "CC(=O)OCCN1CN(C)C(=S)N(c2ccc(C)cc2C)C1", "melting point": "80 to 83 °C"}
{"Compound": "Cc1cccc(C(=O)Nc2c[nH]nc2C(=O)NCCOC(C)C)n1", "melting point": "150 to 151 °C"}
{"Compound": "CN(C(=O)Nc1ccc(Cl)c(Cl)c1)S(C)(=O)=O", "melting point": "140 °C"}
{"Compound": "CCCCc1c(/C=C/C(=O)OC)ccc2cc(OC)ccc12", "melting point": "71 to 72 °C"}
{"Compound": "Cc1ncc(-c2ccccc2)c(-c2ccc3c(c2)NC(=O)CO3)n1", "melting point": "229 °C"}
{"Compound": "COC[C@@H]1CCCN1S(=O)(=O)c1ccc(Cl)c(COc2cccc3c(-n4cccn4)cc(C)nc23)c1Cl", "melting point": "75 °C"}
{"Compound": "NCCCNC(=O)Cn1ncc(-c2ccccc2)c1-c1ccccc1", "melting point": "119 to 120 °C"}
{"Compound": "CC(Cc1n[nH]c(=O)c2ccccc12)c1cccnc1 (stereo unspecified)", "melting point": "142 °C"}
{"Compound": "FC(F)(F)COc1cc(-c2cc(C(F)(F)F)n3cnc(-c4ccncc4)c3n2)ccc1C(F)(F)F", "melting point": "233 °C"}

----------
Quantity Name: melting point

{"Compound": "CN(CC(=O)O)C(=O)CCS", "Quantity Name": "melting point", "Test Value": "157 to 158 °C"}
{"Compound": "CCCn1c(=O)c2[nH]c(C34CC5CC(CC(C5)C3)C4)nc2n(CCC)c1=O", "Quantity Name": "melting point", "Test Value": "169 to 171 °C"}
{"Compound": "CC(=O)NC[C@H]1CN(c2ccc3c(c2)OCCCC3=O)C(=O)O1", "Quantity Name": "melting point", "Test Value": "123 to 128 °C"}
{"Compound": "CC(=O)Sc1cccs1", "Quantity Name": "melting point", "Test Value": "112 to 114 °C"}
{"Compound": "Fc1ccc(C#Cc2ccnc(Cl)n2)cc1", "Quantity Name": "melting point", "Test Value": "125 to 126 °C"}
{"Compound": "CC(c1ccccc1)C(Br)C(=O)c1ccccc1 (stereo unspecified)", "Quantity Name": "melting point", "Test Value": "69 to 71 °C"}
{"Compound": "Cc1cc(Cl)ccc1-n1cnnc1C(F)(F)F", "Quantity Name": "melting point", "Test Value": "90 °C"}
{"Compound": "CCOCOC1(C(=O)CO)C(C)CC2C3CC(C)C4=CC(=O)C=CC4(C)C3C(O)CC21C (stereo unspecified)", "Quantity Name": "melting point", "Test Value": "100 to 102 °C"}
{"Compound": "O=C1c2ccccc2O[C@@H](c2ccccc2)[C@@H]1n1ccnc1 (relative stereo)", "Quantity Name": "melting point", "Test Value": "199 to 203 °C"}
{"Compound": "CCN(C)C1=NS(=O)(=O)c2cccc(OC)c21", "Quantity Name": "melting point", "Test Value": "154 to 156 °C"}
{"Compound": "O=C(O)C1CCCn2c(=O)n(CS)c(=O)n21 (stereo unspecified)", "Quantity Name": "melting point", "Test Value": "158 °C"}
